target: hCA II (Homo sapiens, UniProt P00918)
In this section we review reported pIC50 values for a set of compounds.
Here pIC50 is given on a logarithmic scale as minus log10 of the concentration in mol/L.

CC(=O)O[C@@H]1C(=O)N(C2Cc3ccccc3C2)[C@@H]1c1cccc(Cl)c1 (relative stereo); 8.23

What measured pIC50 goes with CC(=O)O[C@@H]1C(=O)N(C2Cc3ccccc3C2)[C@@H]1c1ccc(Cl)c(Cl)c1 (relative stereo) ?
8.22

Now the compound CC(=O)OC1C(=O)N(C2Cc3ccccc3C2)C1c1ccc(Br)cc1 (stereo not shown)
8.39

Now the compound CC(=O)O[C@@H]1C(=O)N(C2Cc3ccccc3C2)[C@@H]1c1ccccc1[N+](=O)[O-] (relative stereo)
8.30

Now the compound CC(=O)O[C@@H]1C(=O)N(C2Cc3ccccc3C2)[C@@H]1c1ccc(C)cc1 (relative stereo)
8.43

Now the compound COc1cccc([C@@H]2[C@H](OC(C)=O)C(=O)N2C2Cc3ccccc3C2)c1 (relative stereo)
8.19

Now the compound CC(=O)O[C@@H]1C(=O)N(C2Cc3ccccc3C2)[C@@H]1c1cccc(Br)c1 (relative stereo)
8.42
